tested on: MDA-MB-231; test: cells; format: functional, cell-based; conditions: Homo sapiens, MDA-MB-231, 72 h
valueKind: pIC50
One number for each entry, as −log10 of the molar value.

For each listed entry, give its pIC50.
1. C=CC(=O)Nc1cccc(NC(=O)CSc2nc(Nc3ccc(C(F)(F)F)cc3)c3ccccc3n2)c1
2. O=C(CSc1nc(Nc2ccccc2)c2ccccc2n1)Nc1ccc(Cl)cc1
3. C=CC(=O)Nc1cccc(NC(=O)CSc2nc(Nc3ccccc3F)c3ccccc3n2)c1
4. C=CC(=O)Nc1cccc(NC(=O)CSc2nc(Nc3ccccc3Br)c3ccccc3n2)c1
5. C=CC(=O)Nc1cccc(NC(=O)CSc2nc(Nc3ccc(Br)cc3)c3ccccc3n2)c1
6. C=CC(=O)Nc1cccc(NC(=O)CSc2nc(Nc3ccc(CC)cc3)c3ccccc3n2)c1
7. CCc1cccc(NC(=O)CSc2nc(Nc3ccccc3)c3ccccc3n2)c1
8. O=C(CSc1nc(Nc2ccccc2)c2ccccc2n1)Nc1cccc([N+](=O)[O-])c1

Output:
1. 4.94
2. 4.76
3. 4.73
4. 4.82
5. 4.76
6. 4.84
7. 4.91
8. 4.48

Would you be so kind as to report pIC50 for each listed record?
1. O=C(CSc1nc(Nc2ccccc2)c2ccccc2n1)Nc1ccc(F)c(Cl)c1
2. COc1cccc(NC(=O)CSc2nc(Nc3ccccc3)c3ccccc3n2)c1

Output:
[4.67, 4.66]

For each of the compounds below, note its pIC50.
1. O=C(CSc1nc(Nc2ccccc2)c2ccccc2n1)Nc1ccc(Cl)c(Cl)c1
2. C=CC(=O)Nc1cccc(NC(=O)CSc2nc(Nc3ccc(Cl)c(Cl)c3)c3ccccc3n2)c1
3. O=C(CSc1nc(Nc2ccccc2)c2ccccc2n1)Nc1ccc(Cl)cc1Cl

Output:
1. 4.84
2. 4.75
3. 4.71

---

test system: MDA-MB-231; test: cells; type: functional, cell-based; settings: Homo sapiens, MDA-MB-231, 72 h
valueKind: IC50 (µM)
Numbers only, in µM.

Recorded results for 3 compounds are shown here.
>>> number("C=CC(=O)Nc1cccc(NC(=O)CSc2nc(Nc3cccc(OC)c3)c3ccccc3n2)c1")
12.9
>>> number("C=CC(=O)Nc1cccc(NC(=O)CSc2nc(Nc3cccc(Br)c3)c3ccccc3n2)c1")
19.4
>>> number("O=C(CSc1nc(Nc2ccccc2)c2ccccc2n1)Nc1ccccc1Br")
14.1

# per-item lookup of IC50; items listed below
1. O=C(CSc1nc(Nc2ccccc2)c2ccccc2n1)Nc1ccc(Br)cc1
2. C=CC(=O)Nc1cccc(NC(=O)CSc2nc(Nc3ccc(Cl)cc3)c3ccccc3n2)c1
3. C=CC(=O)Nc1cccc(NC(=O)CSc2nc(Nc3cccc(Cl)c3)c3ccccc3n2)c1
4. O=C(CSc1nc(Nc2ccccc2)c2ccccc2n1)Nc1ccc([N+](=O)[O-])cc1

Output:
1. 11.5
2. 10.3
3. 16.3
4. 16.8

Please look at the items below and tell me IC50 for each one, in order.
1. C=CC(=O)Nc1cccc(NC(=O)CSc2nc(Nc3cccc(F)c3)c3ccccc3n2)c1
2. C=CC(=O)Nc1cccc(NC(=O)CSc2nc(Nc3cccc(C)c3)c3ccccc3n2)c1
3. C=CC(=O)Nc1cccc(NC(=O)CSc2nc(Nc3ccc(Cl)cc3Cl)c3ccccc3n2)c1
4. CCc1ccc(NC(=O)CSc2nc(Nc3ccccc3)c3ccccc3n2)cc1
5. C=CC(=O)Nc1cccc(NC(=O)CSc2nc(Nc3ccc(F)cc3)c3ccccc3n2)c1

Output:
1: 8.16; 2: 16.8; 3: 23.1; 4: 33.9; 5: 9.49

---

Answer each item with its documented IC50.
system: MDA-MB-231; assay: cells; type: functional, cell-based; conditions: Homo sapiens, MDA-MB-231, 72 h
One number for each entry, in µM.

Example entries begin here.
>>> number("C=CC(=O)Nc1cccc(NC(=O)CSc2nc(Nc3ccc(F)c(Cl)c3)c3ccccc3n2)c1")
10.6
>>> number("C=CC(=O)Nc1cccc(NC(=O)CSc2nc(Nc3ccccc3C)c3ccccc3n2)c1")
20.4
>>> number("C=CC(=O)Nc1cccc(NC(=O)CSc2nc(Nc3ccccc3Cl)c3ccccc3n2)c1")
12.7

Let us move to another entry and its IC50.
Input: Respond only with IC50 recorded for C=CC(=O)Nc1cccc(NC(=O)CSc2nc(Nc3ccccc3)c3ccccc3n2)c1
Output: 10.2

---

Please go through the items and note down their pIC50.
system: MDA-MB-231; experiment: cells; type: functional, cell-based; conditions: Homo sapiens, MDA-MB-231, 72 h
Numbers only, as −log10 of the molar value.

Below are worked cases with known answers.
>>> number("O=C(CSc1nc(Nc2ccccc2)c2ccccc2n1)Nc1ccccc1Cl")
4.61
>>> number("O=C(CSc1nc(Nc2ccccc2)c2ccccc2n1)Nc1ccc(F)cc1")
4.47
>>> number("O=C(CSc1nc(Nc2ccccc2)c2ccccc2n1)Nc1ccc(C(F)(F)F)cc1")
4.96
>>> number("O=C(CSc1nc(Nc2ccccc2)c2ccccc2n1)Nc1cccc(Br)c1")
4.76

Now take the following molecule into account.
Input: Respond only with pIC50 recorded for O=C(CSc1nc(Nc2ccccc2)c2ccccc2n1)Nc1cccc(Cl)c1
Output: 4.78

---

test system: MDA-MB-231; assay: cells; assay type: functional, cell-based; conditions: Homo sapiens, MDA-MB-231, 72 h
valueKind: IC50

>>> result("O=C(CSc1nc(Nc2ccccc2)c2ccccc2n1)Nc1cccc(F)c1")
"> 50 µM"

Batch request: IC50 per item, same order as input.
1. O=C(CSc1nc(Nc2ccccc2)c2ccccc2n1)Nc1ccccc1F
2. C=CC(=O)Nc1cccc(NC(=O)CSc2nc(Nc3cc(OC)c(OC)c(OC)c3)c3ccccc3n2)c1

Output:
1. > 50 µM
2. > 50 µM

FYI, the data here is from ChEMBL document CHEMBL4808194.
